tested on: A549 cells (human non-small cell lung cancer cells); assay: CCK-8 anti-proliferation assay, A549 cells; type: cell-based; conditions: CCK-8, 72 hours incubation
Below, each entry is listed with its recorded pIC50.
Scale note: pIC50 = -log10(concentration in M).

Worked cases, answers included:
> print(dat)
                                   compound  measurement
1  N#CCCNc1nonc1-c1nc2ccccc2n1CCC(F)(F)c1ccc(N)cc1         7.38
2  N#CCCNc1nonc1-c1nc2cc(Cl)ccc2n1CC(F)(F)c1ccc(N)cc1         7.88
3  N#CCCNc1nonc1-c1nc2c(O)cccc2n1CC(F)(F)c1ccc(N)cc1         7.74
4  N#CCCNc1nonc1-c1nc2c(Cl)cccc2n1CC(F)(F)c1ccc(N)cc1         7.89
5  N#CCCNc1nonc1-c1nc2ccccc2n1C(F)(F)c1ccc(N)cc1         7.54

Value of measured pIC50 for the entry N#CCCNc1nonc1-c1nc2cc(C(F)(F)F)ccc2n1CC(F)(F)c1ccc(N)cc1 : 7.83

Value of measured pIC50 for the entry N#CCCNc1nonc1-c1nc2ccccc2n1CC(F)c1ccc(N)cc1 (stereo not shown) : 7.47
